Test: qHTS for Inhibitors of human tyrosyl-DNA phosphodiesterase 1 (TDP1): qHTS in cells in absence of CPT; note: nearly all actives have a fitted effect of over 55% in size
Settings: DT40 Tdp1-/- hTDP1 cells, no CPT, ATP luminescence, 48 h
In all, about 420,000 compounds went through this assay and about 64,000 (15%) were called active. Inconclusive results (about 27%) are left out. Calls come from the whole dose curve; as a rule, active = well fitted inhibition curve with a large enough effect; inconclusive = small, poorly fitted or top-dose-only effect; inactive = flat fitted curve, though single readings scatter. These entries were drawn from the full list.
Returns: one label drawn from 1 (yes) = active, 0 (no) = inactive

Consider the following illustrative entries.
* CC(C)OCCCNC(=S)N1CCC(C(=O)c2ccc3c(c2)OCCO3)CC1 | 1 (yes)
* CN(c1ccccc1)S(=O)(=O)c1ccc(Cl)c(C(=O)OCC(=O)NCc2ccco2)c1 | 0 (no)
* CC(C)(CCl)C(=O)Nc1ccc(Sc2ccc(F)cc2)cc1 | 1 (yes)
* CCCCN(C)CCNC(=O)C1CCCN(S(=O)(=O)c2cccc3nsnc23)C1 (stereo not given) | 0 (no)
* C/C=C/C=C/C(=O)OCC(=O)Nc1ccc(Cl)cc1 | 0 (no)
* CC1CCCN(CC(O)COCc2ccccc2)C1 (stereo not given) | 0 (no)
* Cn1c(SCC(=O)N/N=C/c2ccc(O)c(O)c2)nc2ccccc21 | 1 (yes)
* NS(=O)(=O)c1ccc(CCNC(=O)NC2CCCCC2)cc1 | 0 (no)
* CC1CCCN(CCOCCOc2ccccc2-c2ccccc2)C1 (stereo not given) | 1 (yes)
* CCOc1ccccc1CNS(=O)(=O)c1cc(-c2cc(C)no2)ccc1C | 0 (no)

As a next step, examine the molecule that follows.
For CCOC1CS(=O)(=O)CC1OCC (stereo not given) , which call appears in the assay record? 0 (no)

---

Experiment: qHTS for Inhibitors of human tyrosyl-DNA phosphodiesterase 1 (TDP1): qHTS in cells in absence of CPT; note: nearly all actives have a fitted effect of over 55% in size
Conditions: DT40 Tdp1-/- hTDP1 cells, no CPT, ATP luminescence, 48 h
About 64,000 (15%) of roughly 420,000 compounds were called active. Not shown: some 27% with an inconclusive outcome. Calls follow the shape of the dose curve; as a rule, active = well fitted inhibition curve with a large enough effect; inconclusive = small, poorly fitted or top-dose-only effect; inactive = flat fitted curve, though single readings scatter. Not all results are given here.
Answer with one of the outcomes given here: 1 (yes) for active, 0 (no) for inactive

Illustrative cases are given below, each with its answer.
- CCC1CCCCN1S(=O)(=O)Cc1ccccc1Cl (centres undefined): 0 (no)
- CCCOc1ccc(/C(O)=C2/C(=O)C(=O)N(CCN(C)C)C2c2ccc(OC)c(OC)c2)cc1 (centres undefined): 0 (no)

What call does the record list for CCOCc1nnc(NC(=O)CCS(=O)(=O)Cc2ccccc2)s1 ? 1 (yes)

Could you kindly confirm the outcome this assay logged for CCOc1ccc(N(C(=O)c2snc(C(N)=O)c2N)C(C(=O)NCC2CCCO2)c2c[nH]c3ccccc23)cc1 (centres undefined) ? 1 (yes)

What was the test verdict on O=C(COC(=O)C1CC2CCCC(C1)C2=O)NC(=O)c1ccccc1 (centres undefined) ? 0 (no)

---

Assay: qHTS for Inhibitors of human tyrosyl-DNA phosphodiesterase 1 (TDP1): qHTS in cells in absence of CPT; note: nearly all actives have a fitted effect of over 55% in size
Settings: DT40 Tdp1-/- hTDP1 cells, no CPT, ATP luminescence, 48 h
Experimental: Human tyrosyl-DNA phosphodiesterase 1 (TDP1) is a novel repair gene, and we propose to use it as a new target for anticancer drug development. […] For the primary screen, Tdp1-/-;hTDP1 cells will be exposed to small molecules in the presence or absence of CPT, and their growth kinetics will be evaluated after 48 hours by measuring ATP activity. […] The hit compounds will then be evaluated in the presence or absence of CPT using Tdp1-/- cells. […]
About 64,000 (15%) of roughly 420,000 compounds were called active. About 27% were inconclusive and are not listed. The call rests on the fitted dose curve; in most records, active means well fitted inhibition curve with a large enough effect; inconclusive means small, poorly fitted or top-dose-only effect; inactive means flat fitted curve, though single readings scatter. These entries were drawn from the full list.
Tick one outcome: active, inactive

Worked set:
• Cc1ccc(OCC(=O)N/N=C/c2ccncc2)cc1 = inactive
• N#Cc1ccc(C(=O)OCC(=O)NC(=O)NC2CCCCC2)cc1 = inactive
• Cc1ccc(/C=N/NC(=O)COc2ccccc2-c2ccccc2)cc1 = active
• Cc1ccc(NC(=O)CSc2nc3c([nH]c4ccccc43)c(=O)n2-c2ccccc2)cc1Cl = active
• CCOc1ccc(N2CC(C(=O)NCCN3C(=O)S/C(=C\c4cccnc4)C3=O)CC2=O)cc1 (stereo not given) = inactive

Tell me the assay call for COc1cc(OC)cc(C(=O)N[C@H](C(=O)OCC(=O)NC(C)c2ccccc2)C(C)C)c1 (stereo not given in full) please. inactive

Call for entry Cc1cc(NC(=O)CSCC(=O)NC(C)c2ccccc2)no1 (stereo not given) : inactive

Record lookup: outcome of this test for CCOC(=O)CN1CC23C=CC(O2)C(C(=O)Nc2ccc(F)cc2)C3C1=O (stereo not given) ? inactive

Hello, I am checking results. What call was entered for CC(C)=C(NC(=O)c1ccco1)C(=O)NCCc1nc2ccccc2[nH]1 ? inactive

Given CCCCCOc1ccc(/C=C/C(=O)NCCc2nc3ccccc3[nH]2)cc1OC , state the outcome it received in this test. active

Which outcome did this test record for the compound O=C(CC(NS(=O)(=O)c1ccc(Cl)cc1)c1ccco1)NC1CCCC1 (stereo not given) ? inactive

Assay result, entry COc1ccc(N2CC(C(=O)NCCN3C(=O)S/C(=C\c4cccnc4)C3=O)CC2=O)c(OC)c1 (stereo not given) — outcome? inactive

---

Assay: qHTS for Inhibitors of human tyrosyl-DNA phosphodiesterase 1 (TDP1): qHTS in cells in absence of CPT; note: nearly all actives have a fitted effect of over 55% in size
Conditions: DT40 Tdp1-/- hTDP1 cells, no CPT, ATP luminescence, 48 h
Out of some 420,000 compounds screened, about 64,000 (15%) were called active. Inconclusive results (about 27%) are left out. The call rests on the fitted dose curve; in most records, active means well fitted inhibition curve with a large enough effect; inconclusive means small, poorly fitted or top-dose-only effect; inactive means flat fitted curve, though single readings scatter. The list is a sample of the results.
Response enum: YES = active, NO = inactive

Examples from the recorded data:
- C=CCNC(=O)c1ccc(C)c(Br)c1: NO
- COC(=O)[C@@H]1C[C@@]2(O)[C@H](O)[C@H](O)[C@H](O)C[C@H]2N1Cc1ccc(C)s1: NO
- Cc1ccc(S(=O)(=O)NCCCn2ccnc2)cc1C(=O)NC(C)C: NO
- O=C(NCC(c1ccco1)N1CCc2ccccc21)c1cccc(F)c1 (stereo not given): YES

Recorded call for O=C(CSc1nnc2ccc(-c3ccncc3)nn12)N1CCCCC1 ? NO

---

Assay: qHTS for Inhibitors of human tyrosyl-DNA phosphodiesterase 1 (TDP1): qHTS in cells in absence of CPT; note: nearly all actives have a fitted effect of over 55% in size; note: potency is the fitted concentration of half-maximal effect
Conditions: DT40 Tdp1-/- hTDP1 cells, no CPT, ATP luminescence, 48 h
Screen size: about 420,000 compounds; about 64,000 (15%) were called active. Inconclusive results (about 27%) are left out. These entries were drawn from the full list.
Attribute measured: Potency

Completed entries (count: 4):
* Fc1ccc(-c2ccc(CNCc3ccccn3)o2)cc1Cl | 20.6 µM (active)
* CCCN1CCN(CCCNC(=O)c2ccc3nc(Cc4ccccc4)oc3c2)CC1 | inactive
* Cc1nc2c(OCc3ccc(Cl)cc3Cl)cccn2c1N(C)CC1CC1 | 16.4 µM (active)
* COc1ccc(-c2cn3c(n2)sc2cc(C(=O)Nc4ccccc4F)ccc23)cc1 | 3.66 µM (active)

Entry COc1ccc2oc(=O)c(-c3cn4c(n3)sc3cc(OC)ccc34)cc2c1 has what Potency? inactive

---

Assay: qHTS for Inhibitors of human tyrosyl-DNA phosphodiesterase 1 (TDP1): qHTS in cells in absence of CPT; note: nearly all actives have a fitted effect of over 55% in size
Details: DT40 Tdp1-/- hTDP1 cells, no CPT, ATP luminescence, 48 h
About 64,000 (15%) of roughly 420,000 compounds were called active. About 27% were inconclusive and are not listed. Calls follow the shape of the dose curve; as a rule, active = well fitted inhibition curve with a large enough effect; inconclusive = small, poorly fitted or top-dose-only effect; inactive = flat fitted curve, though single readings scatter. Not all results are given here.
Can you answer with just one of these options? active, inactive

• O=C(NCc1ccccn1)[C@@H]1CCCN1C(=O)[C@@H]1CCCN1C(=O)c1ccccc1 = inactive
• CC1(C)CC(=O)C(CC(=O)N2CCC(Cc3ccccc3)CC2)C(=O)C1 = inactive
• O=C(CN1CCOc2ccccc21)N1CCC(Cc2ccccc2)CC1 = active
• O=C(CNC(=O)c1cc(=O)[nH]c2ccccc12)Nc1ccc(F)c(F)c1 = inactive

Please find the next compound below.
# lookup: test call for CCc1nc(SCC(=O)Nc2ccccc2OC)n[nH]1 inactive

---

Test: qHTS for Inhibitors of human tyrosyl-DNA phosphodiesterase 1 (TDP1): qHTS in cells in absence of CPT; note: nearly all actives have a fitted effect of over 55% in size
Details: DT40 Tdp1-/- hTDP1 cells, no CPT, ATP luminescence, 48 h
Method: Human tyrosyl-DNA phosphodiesterase 1 (TDP1) is a novel repair gene, and we propose to use it as a new target for anticancer drug development. […] For the primary screen, Tdp1-/-;hTDP1 cells will be exposed to small molecules in the presence or absence of CPT, and their growth kinetics will be evaluated after 48 hours by measuring ATP activity. […] The hit compounds will then be evaluated in the presence or absence of CPT using Tdp1-/- cells. […]
In all, about 420,000 compounds went through this assay and about 64,000 (15%) were called active. Roughly 27% stayed inconclusive and do not appear here. The call rests on the fitted dose curve; in most records, active means well fitted inhibition curve with a large enough effect; inconclusive means small, poorly fitted or top-dose-only effect; inactive means flat fitted curve, though single readings scatter. These entries were drawn from the full list.
Can you answer with just one of these options? label 1 (active), label 0 (inactive)

Study these solved cases before continuing.
• Cc1nc(N=C(N)N)nc2c(C)cccc12 = label 1
• O=C(O)C1C2C=CC(O2)C1C(=O)Nc1ccccn1 (centres undefined) = label 0

// param item: Cn1c(SCC(=O)Nc2ccc(Br)cc2F)nnc1-c1ccco1 ; yields the recorded call label 0

Tell me the assay call for CCOC(=O)N1CCN(Cc2nnc(-c3ccccc3Cl)o2)CC1 please. label 0

# outcome recorded in this test, key = C[C@H](CO)N1C[C@H](C)[C@H](CN(C)C(=O)Nc2ccc3c(c2)OCO3)Oc2ncc(Br)cc2C1=O label 0

GET /call?item= COc1ccc(-n2ncc3c2CC(C)(C)CC3NC(=O)CCc2c(C)noc2C)cc1 (centres undefined) returns the recorded outcome of this test. label 0

Could you check what this test reported for COc1ccc(S(=O)(=O)c2c[nH]c(=S)[nH]c2=O)cc1Cl ? label 0

Returns: the outcome recorded for COc1ccc(-n2ncc3c2CC(C)(C)CC3NC(=O)CCc2c(C)nn(C)c2C)cc1 (centres undefined) in this assay. label 0

What outcome does the record of this test show for CC(C)(C)c1ccc(/C=C2\Oc3c(ccc(O)c3CN3CCN(CCO)CC3)C2=O)cc1 ? label 0

Short answer needed: outcome of this test for COc1ccc(/C=C2\CCc3ccccc3C2=O)c(OC)c1OC ? label 1

Outcome? Cc1cc(N2C(=O)C(=O)/C(=C(/O)c3ccc(Cl)cc3)C2c2cccc(Br)c2)no1 (centres undefined) label 0

In this assay, the call recorded for O=C(OCCO)c1cc(Cl)c(C(=O)OCCO)cc1Cl was what? label 0

Field: outcome | Entry: Cc1cccc2c(=O)n3c(nc12)CCCCC3 label 0

Query: recorded result category for CCOc1ncccc1C(=O)OCC(=O)c1c[nH]c2ccccc12 in this test label 0
